Experiment: CEETOX_H295R_PROG: CeeTox H295R High-throughput Steroidogenesis Assay for Progesterone (PROG) (AID 2283442)
Conditions: actives raise or lower the signal
Activity calls are given as the source filed them. How the source made its calls: active means hit-call score of the fitted dose curve at least 0.9, where 1 is the maximum; inactive means score below 0.9.
Classes used: TRUE = active, FALSE = inactive

>>> df
                                   compound  group_label
0             Nc1ccc2c(c1)C(=O)c1ccccc1C2=O         TRUE
1  Cc1nc(C)nc(N2C[C@@H](C)N(c3ccnc([C@@H](C)O)n3)[C@@H](C)C2)n1        FALSE
2  Oc1ccc2c(c1)OC[C@@H](N1CCC(O)(c3ccc(F)cc3)CC1)[C@H]2O        FALSE
3           Nc1ccc(S(=O)(=O)c2ccc(N)cc2)cc1         TRUE
4  CC1(C)CC(N=C=O)CC(C)(CN=C=O)C1 (stereo not given)        FALSE
5  NC(=O)Cn1c(=O)cc(CCN2CCN(c3nccc4sccc34)CC2)c2ccc(F)cc21         TRUE
6  Cc1c(C(=O)O)c(O)cc2c1C(=O)c1c(O)c([C@@H]3O[C@H](CO)[C@@H](O)[C@H](O)[C@H]3O)c(O)c(O)c1C2=O        FALSE
7  CN1CCN(Cc2cc(-c3ccc4[nH]c(=O)oc4c3)co2)[C@@H](c2ccc(F)cc2)C1         TRUE
8  Cc1nc(-c2ccc3c(c2)CCN(CCC2CCC(NC(=O)/C=C/c4ccc(F)cc4)CC2)CC3)no1 (stereo not given)         TRUE
9             CCOc1ccc2c(c1)C(C)=CC(C)(C)N2         TRUE
